switch fluorescence ratio for assorted sequences
- Tested on: ATP;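 also: ATP exposure 15 min at 22 °C before imaging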
- Assay Text: switch fluorescence ratio, 500 uM ATP over buffer (Cy3 cluster intensity, sum of 5 cycles each) (fold (ratio)); higher = stronger signal-on switching upon ATP binding; sequences stand for … in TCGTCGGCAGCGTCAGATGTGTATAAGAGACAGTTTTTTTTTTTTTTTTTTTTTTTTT…TC
- Experimental Context: aptamer strand: ATP DNA aptamer (quencher-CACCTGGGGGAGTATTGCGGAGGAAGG + anchor), 100 nM annealed; ATP concentration: 500 uM
Reported Endpoint: switch fluorescence ratio

>>> assay_result("GTTATCATTA")
1.02
>>> assay_result("GGTGGCATGT")
0.997
>>> assay_result("AGGGAGGGGG")
1.01
>>> assay_result("CCTGTTATGG")
1.01
>>> assay_result("GTTTAATTTG")
1
>>> assay_result("TTTCAGAGGG")
0.992
>>> assay_result("TAGTTGAGTT")
0.982
>>> assay_result("AAAGGTCGAT")
0.986
>>> assay_result("CAGTCTATCA")
0.972
>>> assay_result("ATATGGAGAT")
0.98
>>> assay_result("TATCGGGGT")
0.989
>>> assay_result("CCTTATTGAA")
0.979
>>> assay_result("GGTGAAGAGT")
1
>>> assay_result("AAAAATGTGT")
0.971

###

switch fluorescence ratio for assorted sequences
- Tested on: ATP;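 also: ATP exposure 15 min at 22 °C before imaging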
- Assay Text: switch fluorescence ratio, 500 uM ATP over buffer (Cy3 cluster intensity, sum of 5 cycles each) (fold (ratio)); higher = stronger signal-on switching upon ATP binding; sequences stand for … in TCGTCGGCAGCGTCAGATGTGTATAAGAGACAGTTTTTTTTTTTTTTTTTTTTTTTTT…TC
- Experimental Context: aptamer strand: ATP DNA aptamer (quencher-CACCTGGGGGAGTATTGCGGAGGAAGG + anchor), 100 nM annealed; ATP concentration: 500 uM
Reported Endpoint: switch fluorescence ratio

>>> assay_result("CGGGGTGCTG")
1.03
>>> assay_result("TCTTTCTTTT")
1.03
>>> assay_result("GTGGCTGTTT")
1.02
>>> assay_result("CGGAGGTAAG")
0.994
>>> assay_result("AGTCTGCGCG")
1
>>> assay_result("GAGTTGAGGA")
0.98
>>> assay_result("TCATTGGGGT")
0.957
>>> assay_result("AGCTTAGTTT")
0.975
>>> assay_result("GAAAAATTTC")
0.99
>>> assay_result("TAGGTCTTGC")
1.01
>>> assay_result("GACTAATACG")
1.04
>>> assay_result("TAAATTGGGG")
0.983
>>> assay_result("ACTCGTCACA")
1.15
>>> assay_result("TATCATGCCG")
0.967
>>> assay_result("GCCATAATTA")
0.981
>>> assay_result("GTGTACAAAT")
0.99
>>> assay_result("ACCCGGGATT")
1.13
>>> assay_result("GCTTTGTGTA")
1.01
>>> assay_result("GCTCCCGGGC")
1.1
>>> assay_result("TACTGAAGGG")
1.02
>>> assay_result("TTGTTGCAAG")
1.01
>>> assay_result("CCGGGAGTCG")
1.06
>>> assay_result("TTAAGGGAAA")
1.02
>>> assay_result("CGTTTTGCAT")
1.09
